Data credit: patent US11242344B2

Each record here notes measured IC50.
# experimental target: VHL Elongin B/C complex (Homo sapiens (Human))
# Sequence (P40337 whole entry, looked up): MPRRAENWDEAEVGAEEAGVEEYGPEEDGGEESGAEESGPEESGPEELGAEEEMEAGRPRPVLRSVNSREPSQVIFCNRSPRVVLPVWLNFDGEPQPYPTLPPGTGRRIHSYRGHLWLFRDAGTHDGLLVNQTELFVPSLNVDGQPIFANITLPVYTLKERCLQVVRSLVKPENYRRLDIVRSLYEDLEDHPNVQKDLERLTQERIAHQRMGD
# Sequence (Q15370 whole entry partner, looked up): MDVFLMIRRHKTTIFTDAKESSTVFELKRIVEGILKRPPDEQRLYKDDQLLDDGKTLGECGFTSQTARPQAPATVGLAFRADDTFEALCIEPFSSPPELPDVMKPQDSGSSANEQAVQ
# Sequence (Q15369 whole entry partner, looked up): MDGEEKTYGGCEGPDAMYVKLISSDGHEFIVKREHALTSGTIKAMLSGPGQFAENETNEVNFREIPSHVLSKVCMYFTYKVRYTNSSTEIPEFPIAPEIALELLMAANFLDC
# measurement description: Fluorescence Polarization (FP) VHL Binding Assay
# test context: VHL binding, FP assay; geometric mean where more than one measurement
recorded metric: IC50 (µM)

compound	recorded metric	measurement units	qualifying sign	observed value
CC(=O)N1CCC[C@H]1C(=O)N1C[C@H](O)CC1C1=NC(=O)[C@](C)(c2ccc(-c3scnc3C)cc2)N1 (single isomer, unassigned)	IC50	µM	=	65.5
Cc1cc(C(C(=O)N2C[C@H](O)C[C@H]2C2=NO[C@](C)(c3ccc(-c4ccccc4F)cc3)N2)C(C)C)on1 (single isomer, unassigned) [Example 139.2]	IC50	µM	=	0.0628
Cc1cc(C(C(=O)N2C[C@H](O)CC2C2=NC(=O)C(C)(c3ccc(Br)cc3)N2)C(C)C)on1 (single isomer, unassigned) [Example 103.4]	IC50	µM	=	6.73
C#Cc1cccc(Nc2ncnc3cc(OCCOC)c(OCCOCC#CC#CCOc4cc(C(C(=O)N5C[C@H](O)CC5C5=NC(=O)[C@](C)(c6ccc(-c7scnc7C)cc6)N5)C(C)C)on4)cc23)c1 (single isomer, unassigned) [Example 1004.4]	IC50	µM	=	6.25
Cc1ncsc1-c1ccc([C@]2(C)NC(C3C[C@@H](O)CN3C(=O)C3N(S(C)(=O)=O)CCC3(C)C)=NC2=O)cc1 (single isomer, unassigned) [Example 125.1]	IC50	µM	=	179
Cc1cc([C@H](C(=O)N2C[C@H](O)C[C@H]2C2=NO[C@](C)(c3ccc(Br)cc3)N2)C(C)C)on1 (mixture of isomers)	IC50	µM	=	2.28
Cc1cc(C(C(=O)N2C[C@H](O)CC2C2=NC(=O)C(C)(c3ccc(-c4cccnc4)cc3)N2)C(C)C)on1 (single isomer, unassigned) [Example 105.1]	IC50	µM	=	375
Cc1cc([C@@H](C(=O)N2C[C@H](O)C[C@H]2C2=NOC3(CCc4ccccc43)N2)C(C)C)on1 (single isomer, unassigned) [Example 130.2]	IC50	µM	=	362
Cc1noc(C(C(=O)N2C[C@H](O)CC2C2=NC(=O)[C@](C)(c3ccc(-c4scnc4C)cc3)N2)C(C)C)n1 (single isomer, unassigned) [Example 117.2]	IC50	µM	=	1.62
Cc1cc(C(C(=O)N2C[C@H](O)CC2C2=NC(=O)C(C)(c3ccc(-c4cccc(=O)n4C)cc3)N2)C(C)C)on1 (single isomer, unassigned) [Example 108.1]	IC50	µM	=	57.5
Cc1cc([C@H](C(=O)N2C[C@H](O)C[C@H]2C2=NO[C@@](C)(c3ccc(Br)cc3)N2)C(C)C)on1 (mixture of isomers)	IC50	µM	=	6.3
C#Cc1cccc(Nc2ncnc3cc(OCCOC)c(OCCOCC#CC#CCOc4cc(C(C(=O)N5C[C@H](O)CC5C5=NC(=O)[C@](C)(c6ccc(-c7scnc7C)cc6)N5)C(C)C)on4)cc23)c1 (single isomer, unassigned) [Example 1004.2]	IC50	µM	=	75.8
CCN1N=C([C@@H]2C[C@@H](O)CN2C(=O)C(c2cc(C)no2)C(C)C)NC1(C)C (single isomer, unassigned) [Example 115.1]	IC50	µM	≥	400
CC(=O)N[C@H](C(=O)N1C[C@H](O)CC1C1=NC(=O)C(C)(c2ccc(Br)cc2)N1)C(C)(C)C (single isomer, unassigned) [Example 101.4]	IC50	µM	=	108
Cc1ncsc1-c1ccc([C@]2(C)NC(C3C[C@@H](O)CN3C(=O)C(c3cc(OCCCCCNC(=O)c4cc5c(cc4CS(C)(=O)=O)-c4cn(C)c(=O)c6[nH]cc(c46)CN5c4ncc(F)cc4F)no3)C(C)C)=NC2=O)cc1 (single isomer, unassigned) [Example 1001.1]	IC50	µM	=	16.9
Cc1cc([C@H](C(=O)N2C[C@H](O)C[C@H]2C2=NOC(C)(C)N2)C(C)C)on1	IC50	µM	=	31.4
CC(=O)N[C@H](C(=O)N1C[C@H](O)CC1C1=NC(=O)C(C)(c2ccc(-c3scnc3C)cc2)N1)C(C)(C)C (single isomer, unassigned) [Example 102.1]	IC50	µM	=	6.17
Cc1cc([C@@H](C(=O)N2C[C@H](O)C[C@H]2C2=NOC(c3ccccc3)(c3ccccc3)N2)C(C)C)on1	IC50	µM	≥	400
Cc1ncsc1-c1ccc([C@]2(C)NC(C3C[C@@H](O)CN3C(=O)C(c3cn(C)nn3)C(C)C)=NC2=O)cc1 (single isomer, unassigned) [Example 118.2]	IC50	µM	=	0.418
Cc1ncsc1-c1ccc([C@]2(C)NC(C3C[C@@H](O)CN3C(=O)C3N(S(C)(=O)=O)CCC3(C)C)=NC2=O)cc1 (single isomer, unassigned) [Example 125.4]	IC50	µM	≥	400
Cc1cc(C(C(=O)N2C[C@H](O)CC2C2=NC(=O)C(C)(c3ccc(-c4cccc(=O)n4C)cc3)N2)C(C)C)on1 (single isomer, unassigned) [Example 108.2]	IC50	µM	=	11
